Test: qHTS assay to identify aromatase inhibitors - cell viability counter screen (AID 743084);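 note: cells stimulated with testosterone during compound exposure; nearly all actives have a fitted effect of over 55% in size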
Settings: MCF-7 aro ERE viability, CellTiter-Fluor, 24 h; series mostly up to 70.3 µM
Records with an inconclusive call do not appear. Activity calls are given as the source filed them. Calls come from the whole dose curve; as a rule, active = well fitted cell-killing curve with a large enough effect in the repeat runs; inconclusive = weak or mixed curves, or effect the other way; inactive = no such curve, though single readings can be large or run the other way.
Allowed answers: YES for active, NO for inactive

Completed entries (count: 2):
{"Compound": "O=C(OC1C[C@H]2CC[C@@H](C1)[N+]21CCCC1)C(O)(c1ccccc1)c1ccccc1 (stereo not given in full)", "Category": "NO"}
{"Compound": "CCCN(C1CCN(C(=O)C2CCNCC2)CC1)[C@@H]1CCc2ccc(OC)cc2C1", "Category": "NO"}

Could you now consider this next compound?
Tell me the assay call for `CC(=O)CC/C=C(\C)CC/C=C(\C)CC/C=C(\C)CCC=C(C)C` please.
NO
